# Substrate: CC1=C(C)C(=O)C(C)=C(C)C1=O
# assay remarks: purified protein
# Type: biochemical, Thiocapsa roseopersicina
# recorded conditions: 200 µM sulfide, 50 mM Tris-HCl pH 8.0, 25 °C, anaerobic
endpoint label: Km (µM)
# value in µM; strip the unit string

Output measured Km for this item: TrSqrF; SqrF WT (Thiocapsa roseopersicina; V331F) (protein) MHRITIVGSGFAGLTAVQSIRRTAPDAEITLVSNKAEFIYYPGLIWVPCGIRSGEDLRIDLRPFFKRMRVRHLAGEATGLSPDGRTLETTAGPVENDGLVIGSGGRFIKKLPGIEHAITPCEGIAAAEAIRDRVKAMDGGSIAMGFAGNPNEPSSMRGGPIFEFIFGMDSQLRKEGRRDRFRLHFFTPAERPGNRLGPKAVDGILAEMKRRGIETHLGHKLKSFSESKVTTEAGEFDADLILFMPGMTGNTWFDNTDLPRSPGGLLQADAHCRVPGYERVYVAGDSGSFPGPDWMPKQAHMADLQARAAVKNLLAELQGRAPSETFKVELFCIVDANDTGMLVARTEKNNWVLPSTRFFHWMKLGFEWWYLRPYR 40.23
